Data provenance is the supplement of paper PMC10567573.

For each of the variants below, state its protein stability index.
B1: EMD (parent)
chain: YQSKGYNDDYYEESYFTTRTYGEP

- Variants of: B1
- assay summary: protein stability index of a GFP-peptide fusion (GPS, HEK-293T) (PSI 1-6); higher = more stable;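 further: lentivirally expressed fusions sorted by FACS into six bins by GFP to DsRed ratio, PSI derived from sequencing read proportions per bin multiplied by bin number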
- experimental parameters: c terminus: a fixed tail appended
Form: value (number only, do not type unit).

Given the entry T17S , report its measured protein stability index.
2.48

What value of measured protein stability index is listed for S3K ?
2.75

// lookup protein stability index for P24L
2.1

Report protein stability index for R19H please.
2.5

Any idea what protein stability index was measured for S3H ?
2.42

Need protein stability index, item G5P
2.1

Sample T20R — what was its protein stability index?
2.1

Any idea what protein stability index was measured for Q2P ?
2.29

For the variant shown here, N7K , give the reported protein stability index.
1.94

Please report the recorded protein stability index for T20E .
2.52

Reported protein stability index, variant N7Q : ____
2.14

Fill in: protein stability index of P24Y is ___
1.83

For the variant T17G , what protein stability index is on record?
2.82

// returns reported protein stability index for input R19C
2.08

Given D8C , state its recorded protein stability index.
2.62

// lookup protein stability index for Q2I
1.93

Endpoint output: protein stability index of Y10C . Value?
2.47

So what's the measured protein stability index for this one? E12Q
1.86

Which protein stability index value belongs to E13R ?
1.82

Endpoint output: protein stability index of R19P . Value?
2.53

Record request: protein stability index value, item Y6I
2.83

protein stability index for D9K ?
1.52

Reported protein stability index for N7E : what is it?
2.87

Item D8Q has what recorded protein stability index?
1.67

Which protein stability index reading was recorded for the variant T20W ?
1.46

Please report the recorded protein stability index for Y15F .
1.69

Need protein stability index of T18R , thanks.
2.79

What value of protein stability index has been recorded for this entry: G5A
1.93

Consider the variant shown here: N7R What is its recorded protein stability index?
1.75

# get_value(readout='protein stability index', item= Y1D )
4.46

Fill in the blank: the reported protein stability index of E23G is ____.
2

Reported protein stability index, variant G5I : ____
2.18

Bench note: what protein stability index did S14A show?
1.88

Any idea what its protein stability index is? The variant is E13M
2.68

Could you share which protein stability index value was measured for Y11K ?
2.19

For S14E , what is its reported protein stability index?
2.83

Which protein stability index reading was recorded for the variant G22I ?
2.13

Entry under review: R19A . Reported protein stability index?
2.29

Fill blank: measured protein stability index of the variant S3L is ____.
2.17

Which protein stability index reading was recorded for the variant Y11P ?
2.19

What value of protein stability index has been reported for the following variant? Y6G
3.01

What value of protein stability index has been recorded for this entry: P24R
2.05

What does the data say about its protein stability index? Entry: E12I
2.38

So what's the measured protein stability index for this one? Q2W
1.59

Could you tell me which protein stability index is on file for Q2H ?
2.03

Would you kindly share the measured protein stability index for E23P ?
2.44
